composite z-score for assorted compounds
# Study Target: Torsin-1A-interacting protein 2 (Homo sapiens)
# Assay Comment: LULL1 binders on small-molecule microarray, primary screen, cell lysate, human LULL1 lysate, 635/667 nm fluorescence (AID 1092);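 also: probe is lysate of COS7 cells overexpressing human LULL1; score merges per-feature 667 nm fluorescence with signal-to-noise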
# Experimental Conditions: hLULL1 lysate binding, 635 nm fluorescence, higher = more signal
Measurement Kind: composite z-score

>  <Smiles Notation>
O=C(CS)NCCCCCCNC(=O)[C@@H]1C[C@@H]2C(=O)N[C@@H](Cc3ccccc3)C(=O)N2[C@@H]1c1cccc(OCCO)c1

>  <Data Value>
2.92

$$$$
>  <Smiles Notation>
COC(=O)[C@@]1(Cc2ccc(F)cc2)[C@H]2c3cc(C(=O)N4CCCC4)n(CCCNc4ncc(C(F)(F)F)cc4Cl)c3C[C@H]2CN1C(=O)c1ccccc1

>  <Data Value>
2.65

$$$$
>  <Smiles Notation>
CO[C@H]1O[C@H](CO)[C@@H](OC(=O)Nc2ccc(C(F)(F)F)cc2)[C@H](OC(=O)Nc2ccc3c(c2)OCO3)[C@@H]1OC(=O)Nc1ccc2c(c1)OCO2

>  <Data Value>
3.11

$$$$
>  <Smiles Notation>
O=C(c1ccccc1)N1C(=O)[C@]2(COC(c3ccc(OCCCO)cc3)=N2)Cc2ccccc21

>  <Data Value>
3.17

$$$$
>  <Smiles Notation>
C[N+](C)(C)CCCC[C@@H]1NC(=O)[C@H]2C[C@@H](C(=O)NCCCCCCNC(=O)CS)[C@@H](c3cccc(OCCO)c3)N2C1=O

>  <Data Value>
2.01

$$$$
>  <Smiles Notation>
C=C(CC1([C@@H](NP(=O)(c2ccccc2)c2ccccc2)[C@H]2C[C@@H]2CCCC)CC1)c1ccccc1

>  <Data Value>
2.53

$$$$
>  <Smiles Notation>
CO[C@H]1O[C@H](CO)[C@@H](OC(=O)Nc2ccccc2)[C@H](OC(=O)Nc2ccccc2)[C@@H]1OC(=O)Nc1ccccc1

>  <Data Value>
3.66

$$$$
>  <Smiles Notation>
C=C(CCCC)/C(=C/C[C@@H](OC(=O)c1ccncc1)c1ccc(OCCO)cc1)c1cc(C(=O)OC)ccc1OC

>  <Data Value>
1.66

$$$$
>  <Smiles Notation>
CCOC(=O)C[C@H]1[C@H](OC(=O)c2ccc(C(=O)c3ccccc3)cc2)[C@@H](NC(=O)c2ccc3ccccc3c2)c2cc(OCCCO)ccc2N1C(=O)Cc1ccc(OC)cc1

>  <Data Value>
1.43

$$$$
>  <Smiles Notation>
C=CCOC(=O)[C@H]1[C@@H]2C(=O)O[C@@H](c3ccccc3)[C@@H](c3ccccc3)N2[C@@H](c2ccc(OCCOC(=O)[C@H]3C[C@H]4C(=O)N[C@@H](CCCCNC(C)=O)C(=O)N4[C@H]3c3ccc(O)cc3)cc2)[C@]12C(=O)Nc1ccc(I)cc12

>  <Data Value>
1.81

$$$$
>  <Smiles Notation>
Cc1ccc(S[C@]2(C(=O)NCCCN(C)C)CC(=O)N(Cc3cc(C(F)(F)F)cc(C(F)(F)F)c3)[C@@H]2c2ccc(CO)cc2I)cc1

>  <Data Value>
1.77

$$$$
>  <Smiles Notation>
CCOC(=O)C[C@H]1[C@H](OC(=O)c2ccc(C(=O)c3ccccc3)cc2)[C@@H](NC(=O)c2ccc3ccccc3n2)c2cc(OCCCO)ccc2N1C(=O)c1ccccc1

>  <Data Value>
1.94

$$$$
>  <Smiles Notation>
COC(=O)[C@@]1(Cc2ccccc2)[C@H]2c3cc(C(=O)N(C)C)n(Cc4ccsc4Br)c3C[C@H]2CN1C(=O)c1ccccc1

>  <Data Value>
3.32

$$$$
